Provide the recorded inhibition for the entries that follow.
- Protocol Summary: PhoP regulon inhibitors, Salmonella typhi PhoP promoter GFP reporter, confirmatory (AID 1850);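 note: 0% = induced wells with vehicle and 100% = uninduced wells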
- Condition Parameters: fluorescence, 4 h, at 50 µM, stronger effect = higher value
Screen size: about 310,000 compounds; about 1,000 (0.32%) were called active. Only a sample is shown. Potency and affinity values are given separately.

These recorded examples may help you get a feel for the data.
Brc1ccsc1-c1csc(-c2ccncc2)n1: -0.51% (inactive)
OC(COc1ccccc1)CN(Cc1ccccc1)CC(O)COc1ccccc1 (stereo unspecified): -0.87% (inactive)
O=C(Nc1nc(-c2ccccn2)cs1)c1ncc(Cl)c(Cl)c1Cl: -0.4% (inactive)
O=C(Nc1nc(-c2ccccn2)cs1)c1ccco1: 2.93% (inactive)
Cc1ccc2c(c1)NC(=O)C(CC(=O)NCCCN1CCCCC1)O2 (stereo unspecified): -5.47% (inactive)

Report inhibition for each item below.
1. Cc1ccc(C(=O)N/C(=C\c2ccc(-c3cccc([N+](=O)[O-])c3)o2)C(=O)NCCCN(C)C)cc1
2. COc1cc(C)ccc1NC(=O)c1ccc(S(=O)(=O)N2CCOCC2)cc1
3. CCC(=O)N1CCc2cc(S(=O)(=O)NCCC(=O)NCc3ccc(F)cc3)ccc21
4. O=Nc1c(O)[nH]c2c(F)cccc12

1: 16.2% (inactive); 2: -3.12% (inactive); 3: 5.61% (inactive); 4: -3.73% (inactive)

Report inhibition for each item below.
1. Cc1csc(NC(=O)c2ccc(Br)s2)n1
2. O=C(Nc1nc(-c2cccs2)cs1)c1ccc(Cl)s1

["11.7% (inactive)", "-14% (inactive)"]
